pKi: −log10 of the molar value.
Observed pKi for Melatonin receptor type 1A (Homo sapiens, UniProt P48039), reported per entry below.
value-kind: pKi

Solved cases (4 shown):
> print(dat)
                     line.notation                        measurement.target  reported
1  COc1ccc2cccc(CCC(=O)NC3CC3)c2n1  Melatonin receptor type 1A (Homo sapiens, UniProt P48039)      7.47
2     COc1cnc2cccc(CCNC(=O)CF)c2c1  Melatonin receptor type 1A (Homo sapiens, UniProt P48039)      7.54
3    CCNC(=O)NCCc1cccc2ncc(OC)cc12  Melatonin receptor type 1A (Homo sapiens, UniProt P48039)      6.24
4    COc1ccc2cccc(CCC(=O)NCCF)c2n1  Melatonin receptor type 1A (Homo sapiens, UniProt P48039)      7.72

I = CNC(=O)NCCc1cccc2ccc(OC)nc12
II = COc1ccc2ccc(CCNC(C)=O)cc2n1
Query block: Which of the two items, I and II , has the greater recorded pKi? Choose, then provide that item's label.
Result block: I
(I: 9.22, II: 7.24)
